B1: Azoarcus group I ribozyme (parent)
chain: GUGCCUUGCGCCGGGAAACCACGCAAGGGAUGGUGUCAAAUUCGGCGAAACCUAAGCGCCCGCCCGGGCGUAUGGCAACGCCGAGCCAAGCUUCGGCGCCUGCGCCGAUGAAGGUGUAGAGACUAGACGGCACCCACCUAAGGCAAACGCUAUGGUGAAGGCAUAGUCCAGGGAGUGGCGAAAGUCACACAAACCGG

Variants of: B1
procedure-text: reverse-splicing fitness (ratio to wild type); higher = more active; in vitro selection; Mg2+ level not given
observed-property: reverse-splicing fitness

1. C82G A111C A120C A145U C150A C169G U176C ... 0.0169
2. A111C A120C A145C C150U C169U U176A ... 0.0206
3. C82A A111U A120G C169U U176C ... 0.0195
4. C82U A111C A120G C150G C169U ... 0.00766
5. C82G A111U A145G C150U U176A ... 0.144
6. A111G A145U C150A C169G U176A ... 0.014
7. C82G A120G A145G C150U U176C ... 0.0211
8. C82A A120U A145C C150G U176G ... 0.00275
9. A111U A120C A145U C169G U176C ... 0.00915
10. C82A A111G A120C A145G C150A C169G U176C ... 0.0242
11. A111C A120G C150A C169A U176G ... 0.00594
12. C82G A111G A120C A145U C169G U176G ... 0.00477
13. C82A A111C A120U C150U C169A U176A ... 0.00537
14. C82G A120C A145U C169U U176C ... 0.0154
15. C82G A145G C169G ... 0.0112
16. C82U A111G A120U A145C C150A C169G ... 0.00197
17. C82U A120U A145C C150G C169G U176C ... 0.0019
18. C82A A120C A145U ... 0.135
19. C82G A111U A145U C150G C169U U176G ... 0.00664
20. C82U A111G A145G C169U U176G ... 0.0046
21. C82U A111G A120C C150G C169G U176G ... 0.00467
22. A111U A120G C169U ... 0.155
23. A111C A120G A145U C150G C169G U176A ... 0.00713
24. A111C A120G A145U C150A C169A U176A ... 0.0109
25. C82G A145C C150A U176G ... 0.0117
26. C82G A120G C150G U176G ... 0.00387
27. C82G A111C A120C A145G C150G ... 0.0102
28. C82A A120G A145C C150G ... 0.0075
29. C82A A111C A120U C150G C169G U176C ... 0.00343
30. C82U A111C A120G A145U C150G C169A U176A ... 0.0108
31. C82U A111U A120G A145U C169G U176A ... 0.0111
32. A111U A120G A145C C150G ... 0.0213
33. C82U A111C A120C A145C C150U C169U ... 0.0108
34. C82U A111C A120G A145G C150A C169U U176C ... 0.0153
35. C82G A120U C169U ... 0.00719
36. C82A A111G A145U C150G C169U U176G ... 0.00668
37. C82U A111G U176G ... 0.0517
38. C82U A120C A145G C150A U176C ... 0.0295
39. A111G A120C C150U U176G ... 0.0682
40. C82A A120U A145C U176C ... 0.0456
41. C82G A120U A145C C169A U176C ... 0.00168
42. A111C A145G C150G U176G ... 0.0194
43. C82G A111C A120C A145U C150G C169U ... 0.00897
44. C82G A111C A120G A145U C150U ... 0.0124
45. C82U A120U C150G C169A ... 0.00679
46. C82U A111G A120C C150G U176C ... 0.00984
47. A145G C150A C169A U176A ... 0.0203
48. C82U A111G A120C A145U C150U C169U U176C ... 0.0124
49. A111C A120U A145U C150U C169U ... 0.0452
50. C82A A111C A120C C150A C169A ... 0.0111
51. C82G A111G A145C C150G C169G U176A ... 0.0101
52. C82U A111G A120G A145G C150U C169G U176A ... 0.014
53. C82A A111G A120G A145U C150U U176C ... 0.014
54. A111C A145C C150G U176G ... 0.0182
55. C82G A120C A145G C150G C169U ... 0.0121
56. C82U A111G A120C A145G C150G ... 0.00985
57. C82G A120U A145C C150A C169A ... 0.00159
58. C82A A111U A120G A145G C150A C169A ... 0.0112
59. C82G A120G A145U C150U U176C ... 0.0189
60. C82G A120G C150G C169U U176A ... 0.0113
61. C82A A111C A120U C150A C169A ... 0.00599
62. A111C A120C A145U C169U U176A ... 0.035
63. C82G A120G A145G C169G ... 0.0507
64. A111C A120U A145C C169U U176C ... 0.0145
65. A111C A120C A145G C150U ... 0.462
66. C82A A111U A120C C150G C169U U176G ... 0.0062
67. C82G A111U A120U A145U C150A C169G U176A ... 0.00335
68. A111U A120C A145G C169G ... 0.0095
69. C82G A111U A145C C150U C169A U176G ... 0.00702
70. A111G A120C C150G U176A ... 0.0119
71. C82U A145U C150A C169U U176C ... 0.0101
72. C82G A111G A120G A145U C150G U176C ... 0.0158
73. C82G A111U A120U A145C C169G U176A ... 0.00225
74. C82A A145C C169G U176A ... 0.0247
75. C82G A111C A120C A145C C150G C169G U176C ... 0.00983
76. C82U A111G A120U A145U U176C ... 0.0196
77. C82G A111U A120C A145U C150U C169A ... 0.0102
78. C82G A111U A120U A145G C150A U176G ... 0.00383
79. C82A A111G A120U A145G C150U U176C ... 0.0133
80. C82U A111C A120C A145C C150G U176A ... 0.00512
81. C82A A111G A120G A145U C150A C169G U176G ... 0.00478
82. C82U A111C A120U A145G C150U ... 0.0233
83. C82U A111U A120C C150G C169A U176C ... 0.0101
84. C82G A111C A120U A145U C150U C169U U176C ... 0.00311
85. C82A A111C A120C C150U ... 0.0169
86. A111C A120G C169U U176A ... 0.0433
87. C82A A111U A120C A145G C169G U176C ... 0.0355
88. C82A A111G A120G A145G C150A C169G U176A ... 0.0194
89. A111C A145C C150U C169A U176A ... 0.0139
90. C82A A111G A120C A145G C150G C169G ... 0.00734
91. C82A A111U A145C C169U ... 0.0123

Just for reference, the RNAGym collection of RNA variant scans (doi:10.1093/molbev/msab373) is where these values come from.
